- target: Bifunctional protein GlmU (Mycobacterium tuberculosis (strain ATCC 25618 / H37Rv)) (UniProt P9WMN3)
- Sequence (P9WMN3 whole entry, looked up): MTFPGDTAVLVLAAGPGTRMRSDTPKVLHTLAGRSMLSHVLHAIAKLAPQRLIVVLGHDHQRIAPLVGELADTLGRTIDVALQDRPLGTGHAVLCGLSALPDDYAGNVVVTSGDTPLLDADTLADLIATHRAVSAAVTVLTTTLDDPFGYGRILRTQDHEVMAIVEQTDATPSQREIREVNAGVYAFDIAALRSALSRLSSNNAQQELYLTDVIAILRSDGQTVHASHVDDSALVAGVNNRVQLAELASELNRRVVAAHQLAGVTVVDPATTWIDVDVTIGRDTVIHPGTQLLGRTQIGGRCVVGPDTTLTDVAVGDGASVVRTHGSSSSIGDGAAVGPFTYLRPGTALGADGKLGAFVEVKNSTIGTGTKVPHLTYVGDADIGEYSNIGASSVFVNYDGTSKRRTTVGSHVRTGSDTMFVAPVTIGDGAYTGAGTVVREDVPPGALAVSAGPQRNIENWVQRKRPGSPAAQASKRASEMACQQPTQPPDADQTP
- protocol.description: inhibition of mycobacterial GlmU enzyme – biochemical, glucosamine-1-phosphate acetyltransferase (AID 1376);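 also: 0% = complete reaction with vehicle and 100% = reaction without substrate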
- condition.parameters: M. tuberculosis GlmU acetyltransferase enzyme assay; hits give high values;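 tested at 30 µM in the primary screen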
Out of some 220,000 compounds screened, about 530 (0.24%) were called active. What follows is part of a selection rich in actives, with near analogues and random picks from the rest. Results with a measured potency or affinity are listed apart.
parameter: inhibition (%)
Give just the number in %; leave the unit off.

Illustrative cases are given below, each with its answer.
INSERT INTO results (molecule, measured_number) VALUES
  ('O=c1oc2ccccc2c2oc3cc(O)c(O)cc3c12', 2.91),
  ('N#C/C(=C\c1ccc[nH]1)C(=O)NCC1CCCO1 (stereo not drawn)', 2.87);

Q: Please report the measured inhibition for Cc1nc(NC(N)=S)sc1C(=O)Nc1ccccc1
Result: 14.8

Q: For COc1ccc(N(CC(=O)NN=C2CCCCCCC2)S(=O)(=O)c2ccccc2)cc1Cl , write its inhibition.
Result: 0.05

Q: Read off the recorded inhibition for COc1ccc(/C=N/NC(=O)c2ccc(Cl)c(S(N)(=O)=O)c2)cc1OCC(N)=O
Result: 2.57

Q: Answer with reported inhibition of O=c1cc2c(=O)oc3cc(O)c(O)oc3c2c(O)c1O
Result: 16.8

Q: Annotate the molecule NCCN1CCN(CCN)CC1 with its measured inhibition.
Result: -1.39

Q: For Cn1c(=O)c([N+](=O)[O-])c(NCc2ccc3c(c2)OCO3)c2ccccc21 , write its inhibition.
Result: 0.57

Q: Specify inhibition for CCN(CC)S(=O)(=O)c1cc(NC(=O)Cc2n[nH]c(=O)c3ccccc23)ccc1C and stop.
Result: 7.13

Q: Supply recorded inhibition for CCCCC(=O)Nc1ncc(Br)s1 here.
Result: 0.1

Q: Find the measured inhibition of C=CCn1c(Sc2ncc([N+](=O)[O-])s2)n[nH]c1=O and report it.
Result: 7.87

====

- target: Bifunctional protein GlmU (Mycobacterium tuberculosis (strain ATCC 25618 / H37Rv)) (UniProt P9WMN3)
- protocol.description: inhibition of mycobacterial GlmU enzyme – biochemical, glucosamine-1-phosphate acetyltransferase (AID 1376);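 also: 0% = complete reaction with vehicle and 100% = reaction without substrate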
- condition.parameters: M. tuberculosis GlmU acetyltransferase enzyme assay;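 tested at 30 µM in the primary screen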
About 530 (0.24%) of roughly 220,000 compounds were called active. No stated cut-off is given here; in the data, active means inhibition above about 13%; inconclusive means no clear call, values can overlap the other calls; inactive means below that. For the sample, actives were picked, then their nearest neighbours and some compounds at random. Entries with a potency or affinity are not part of this list.
Would you mind answering with one of these outcomes? active, inactive

Q: Could you kindly confirm the outcome this assay logged for COc1cc(/C=C(\C#N)c2nc3ccccc3[nH]2)cc(OC)c1O ?
Result: inactive

Q: Call for entry O=C/C(=C\Nc1ccccn1)c1nc2cc(Cl)ccc2o1 :
Result: inactive

Q: Field: outcome | Entry: CSc1nc2ncc(C#N)cn2n1
Result: inactive

Q: Can you look up the reported call for Cc1ccc(C(=O)Nc2ccc(O)cc2C(=O)O)cc1C for me?
Result: inactive

Q: How was O=C1NC(=O)/C(=C\c2ccc(O)cc2O)S1 classified in this test?
Result: active

Q: Hi, sorry to bother you, what did the test record for Cn1c(=NC(=O)CN2C(=O)C3CC=CCC3C2=O)sc2ccccc21 (configuration not stated) ?
Result: inactive
